Sourced from ChEMBL document CHEMBL4364292

# assay_method_text: Stability in human hepatocytes assessed as compound remaining incubated for 60 mins under shaking condition by LC-MS/MS analysis
# Type: ADME, cell-based, Hepatocyte
# test_conditions: read-out: Stability
observable: remaining at 1 h

Some entries whose results are on file:
> print(dat)
                            smiles.notation        observable  experimental.result
1  C[C@@H]1CC(c2cnc3c(C#N)nn([C@H](C)c4ccc(Cl)cc4Cl)c3n2)=CC[C@@H]1N1CCC[C@H]1CN  remaining at 1 h                 100%
2  C[C@@H]1CC(c2cnc3c(C#N)nn([C@H](C)c4ccc(Cl)cc4Cl)c3n2)=CC[C@@H]1N1CCC[C@H]1C(N)=O  remaining at 1 h                  97%
3  C[C@@H]1CN(c2cnc3c(C#N)nn([C@H](C)c4ccc(Cl)cc4Cl)c3n2)CC[C@@H]1N1CCC[C@H]1CO  remaining at 1 h                  74%
4  C[C@@H]1CC(c2cnc3c(C#N)nn([C@H](C)c4ccc(Cl)cc4Cl)c3n2)=CC[C@@H]1N1CCC[C@H]1CO  remaining at 1 h                  81%
5  C[C@@H]1CC(c2cnc3c(C#N)nn([C@H](C)c4ccc(Cl)cc4Cl)c3n2)=CC[C@@H]1N1CCC[C@H]1C  remaining at 1 h                  86%

Let's switch to this compound now.
Exercise: Quick one: remaining at 1 h for Cc1nn([C@H](C)c2ccc(Cl)cc2Cl)c2nc(C3=CC[C@H](N4CCC[C@H]4CO)[C@H](C)C3)cnc12 ?
Solution: 99%
